Data origin: PubChem BioAssay (NCI)

- Tested on: SNB-19 CNS
- experiment: NCI tumour cell line growth inhibition, 48 h
Let's look at some compounds and their measured TGI.

Check out these entries, answers already filled in.
CCOC(=O)c1ccc(Nc2nc3ccc(C(F)(F)F)cc3nc2C(=O)OCC)cc1 :: > 100 µM
CC(=Nc1ccc(S(N)(=O)=O)cc1)c1c(O)[nH]c2ccccc12 :: > 25 µM
C=C1C(=O)C23C(O)CC4C5(C)CCCC4(C(O)OC5)C2C(OC(C)=O)CC1C3O (stereo unspecified) :: 28.1 µM
Cc1cc(C)nc(NS(=O)(=O)c2ccc(NC(=O)c3cccc4c(NNc5ccc(S(=O)(=O)N=C(N)N)cc5)c5ccccc5nc34)cc2)n1 :: > 50 µM

The record that follows has no TGI shown yet.
Prompt line: Find the recorded TGI belonging to CCOC(=O)c1sc2ncnc(N)c2c1C and report it.
Response line: > 100 µM
